- target desc: human recombinant PLK4 (Homo sapiens)
- Sequence (O00444 whole entry): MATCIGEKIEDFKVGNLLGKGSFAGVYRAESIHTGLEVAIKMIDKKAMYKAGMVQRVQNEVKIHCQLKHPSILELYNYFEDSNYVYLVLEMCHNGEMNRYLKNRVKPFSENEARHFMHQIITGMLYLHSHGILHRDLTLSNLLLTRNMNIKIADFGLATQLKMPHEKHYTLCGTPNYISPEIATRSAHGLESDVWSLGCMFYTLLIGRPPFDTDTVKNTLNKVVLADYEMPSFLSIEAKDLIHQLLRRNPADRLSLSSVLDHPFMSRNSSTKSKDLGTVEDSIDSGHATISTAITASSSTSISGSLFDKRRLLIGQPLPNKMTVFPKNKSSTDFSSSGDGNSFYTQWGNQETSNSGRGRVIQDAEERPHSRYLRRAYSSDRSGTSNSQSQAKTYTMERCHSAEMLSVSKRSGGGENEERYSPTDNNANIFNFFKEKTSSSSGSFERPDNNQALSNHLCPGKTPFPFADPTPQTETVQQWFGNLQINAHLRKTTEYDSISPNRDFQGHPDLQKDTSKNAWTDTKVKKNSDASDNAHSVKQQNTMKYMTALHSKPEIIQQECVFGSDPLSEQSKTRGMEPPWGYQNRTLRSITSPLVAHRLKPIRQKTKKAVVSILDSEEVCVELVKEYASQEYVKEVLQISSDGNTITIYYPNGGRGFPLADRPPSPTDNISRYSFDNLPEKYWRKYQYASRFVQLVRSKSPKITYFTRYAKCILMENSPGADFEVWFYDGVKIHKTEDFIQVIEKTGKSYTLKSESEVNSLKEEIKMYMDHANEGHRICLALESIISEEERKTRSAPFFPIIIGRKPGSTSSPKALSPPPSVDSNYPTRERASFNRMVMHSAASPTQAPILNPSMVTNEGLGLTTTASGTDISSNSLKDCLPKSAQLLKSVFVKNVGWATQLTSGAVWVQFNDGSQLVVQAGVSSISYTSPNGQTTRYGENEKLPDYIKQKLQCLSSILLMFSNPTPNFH
- experiment: PLK4 Biochemical Assay (ADP-Glo)
- test conditions: 0.5 nM PLK4, 8.0 μM ATP, 4.7 μM MBP, 6 hours at RT
Each item that follows carries a reported IC50.
Kindly answer with a numeric value in pM, unit omitted.

IN: Name the recorded IC50 for CCOc1ccc(-c2nccs2)nc1Nc1n[nH]c2cc([C@@H]3C[C@@]34C(=O)Nc3ccc(OC)cc34)ccc12 [Example 28] .
OUT: 341

IN: Return reported IC50; argument: COc1ccc2c(c1)[C@]1(C[C@H]1c1ccc3c(Nc4cc(-c5cn(C)nc5OC)ccc4OC)n[nH]c3c1)C(=O)N2 [Example 36]
OUT: 2290

IN: Please report the recorded IC50 for CCOc1cc2c(ccc[n+]2[O-])cc1Nc1n[nH]c2cc([C@@H]3C[C@@]34C(=O)Nc3ccc(OC)cc34)ccc12 [Example 12] .
OUT: 3100

IN: # query: IC50 of entry COc1ccc2c(c1)[C@]1(C[C@H]1c1ccc3c(Nc4cc(-c5ccon5)ccc4OC)n[nH]c3c1)C(=O)N2 [Example 32]
OUT: 827

IN: Look up IC50 for this compound: CCOc1cc(-c2cnccn2)ccc1Nc1n[nH]c2cc([C@@H]3C[C@@]34C(=O)Nc3ccc(OC)cc34)ccc12 [Example 7]
OUT: 1700
